All figures here come from ChEMBL document CHEMBL1152495.

- Test system: Candida albicans
- Procedure text: Antifungal activity against Candida albicans after 72 hrs by agar well diffusion method
- Format: functional
Experimental readout: MIC (µg/mL)

Brc1c(-c2ccccc2)nc2sc(Cc3noc4ccccc34)nn12 | 3
Clc1ccc(-c2nc3sc(Cc4noc5ccccc45)nn3c2Br)cc1 | 3
O=c1oc2ccccc2cc1-c1cn2nc(Cc3noc4ccccc34)sc2n1 | 2.5
COc1ccc(-c2nc3sc(Cc4noc5ccccc45)nn3c2SC#N)cc1 | 2.5
O=[N+]([O-])c1ccc(-c2cn3nc(Cc4noc5ccccc45)sc3n2)cc1 | 3.5
O=Nc1c(-c2ccccc2)nc2sc(Cc3noc4ccccc34)nn12 | 3.5
O=Nc1c(-c2ccc([N+](=O)[O-])cc2)nc2sc(Cc3noc4ccccc34)nn12 | 2.5
N#CSc1c(-c2ccccc2)nc2sc(Cc3noc4ccccc34)nn12 | 3.5
O=c1oc2ccccc2cc1-c1nc2sc(Cc3noc4ccccc34)nn2c1Br | 3
c1ccc(-c2cn3nc(Cc4noc5ccccc45)sc3n2)cc1 | 3.5

* * *

Below is a list of entries, each paired with its recorded zone of inhibition at 100 µg/mL value.
- System: Pseudomonas aeruginosa
- Procedure text: Antibacterial activity against Pseudomonas aeruginosa ATCC 10145 at 100 ug/ml after 24 hrs by agar well diffusion method
- Format: functional
- Experimental conditions: ATCC 10145, 24 h, read-out: IZ
Only the number, expressed in mm, is required.

Brc1ccc(-c2nc3sc(Cc4noc5ccccc45)nn3c2Br)cc1 | 16
Brc1ccc(-c2cn3nc(Cc4noc5ccccc45)sc3n2)cc1 | 14
O=Nc1c(-c2ccc([N+](=O)[O-])cc2)nc2sc(Cc3noc4ccccc34)nn12 | 11

From here, focus on the item given below.
Item: `Brc1c(-c2ccccc2)nc2sc(Cc3noc4ccccc34)nn12` Test system: Pseudomonas aeruginosa Read-out: zone of inhibition at 100 µg/mL Value: ?
16

* * *

- Tested on: Staphylococcus aureus
- Procedure text: Antibacterial activity against Staphylococcus aureus ATCC 25923 at 100 ug/ml after 24 hrs by agar well diffusion method
- Assay type: functional
- Experimental conditions: ATCC 25923, 24 h, read-out: IZ
Below is a list of entries, each paired with its recorded zone of inhibition at 100 µg/mL value.
Only the number, expressed in mm, is required.

Some compounds with known zone of inhibition at 100 µg/mL results, for comparison:
N#CSc1c(-c2ccccc2)nc2sc(Cc3noc4ccccc34)nn12 | 16
Clc1ccc(-c2cn3nc(Cc4noc5ccccc45)sc3n2)cc1 | 12
COc1ccc(-c2cn3nc(Cc4noc5ccccc45)sc3n2)cc1 | 10

From here, focus on the item given below.
May I ask what zone of inhibition at 100 µg/mL has been recorded for `O=Nc1c(-c2cc3ccccc3oc2=O)nc2sc(Cc3noc4ccccc34)nn12` ?
14

* * *

- System: Staphylococcus aureus
- Procedure text: Antibacterial activity against Staphylococcus aureus ATCC 25923 at 100 ug/ml after 24 hrs by agar well diffusion method
- Assay type: functional
- Experimental conditions: ATCC 25923, 24 h, read-out: IZ
Experimental readout: zone of inhibition at 100 µg/mL (mm)
Only the number, expressed in mm, is required.

Some compounds with known zone of inhibition at 100 µg/mL results, for comparison:
O=[N+]([O-])c1ccc(-c2nc3sc(Cc4noc5ccccc45)nn3c2Br)cc1 | 11
CC1(C)S[C@@H]2[C@H](NC(=O)[C@H](N)c3ccccc3)C(=O)N2[C@H]1C(=O)O [AMPICILLIN] | 19
N#CSc1c(-c2ccc([N+](=O)[O-])cc2)nc2sc(Cc3noc4ccccc34)nn12 | 9
COc1ccc(-c2nc3sc(Cc4noc5ccccc45)nn3c2SC#N)cc1 | 9
O=Nc1c(-c2ccccc2)nc2sc(Cc3noc4ccccc34)nn12 | 18

From here, focus on the item given below.
Item: `O=Nc1c(-c2ccc(Cl)cc2)nc2sc(Cc3noc4ccccc34)nn12` Test system: Staphylococcus aureus Read-out: zone of inhibition at 100 µg/mL Value: ?
10

* * *

- System: Aspergillus fumigatus
- Procedure text: Antifungal activity against Aspergillus fumigatus at 100 ug/ml after 72 hrs by agar well diffusion method
- Format: functional
- Experimental conditions: read-out: IZ
Below is a list of entries, each paired with its recorded zone of inhibition at 100 µg/mL value.
Only the number, expressed in mm, is required.

COc1ccc(-c2cn3nc(Cc4noc5ccccc45)sc3n2)cc1 | 19
N#CSc1c(-c2ccc([N+](=O)[O-])cc2)nc2sc(Cc3noc4ccccc34)nn12 | 9
N#CSc1c(-c2cc3ccccc3oc2=O)nc2sc(Cc3noc4ccccc34)nn12 | 19
Clc1ccc(-c2nc3sc(Cc4noc5ccccc45)nn3c2Br)cc1 | 10
N#CSc1c(-c2ccc(Cl)cc2)nc2sc(Cc3noc4ccccc34)nn12 | 11
Brc1c(-c2ccccc2)nc2sc(Cc3noc4ccccc34)nn12 | 12
O=Nc1c(-c2ccc(Br)cc2)nc2sc(Cc3noc4ccccc34)nn12 | 15
Brc1ccc(-c2nc3sc(Cc4noc5ccccc45)nn3c2Br)cc1 | 16

Item: Clc1ccccc1C(c1ccccc1)(c1ccccc1)n1ccnc1 [CLOTRIMAZOLE] Test system: Aspergillus fumigatus Read-out: zone of inhibition at 100 µg/mL Value: ?
20

Item: `COc1ccc(-c2nc3sc(Cc4noc5ccccc45)nn3c2Br)cc1` Test system: Aspergillus fumigatus Read-out: zone of inhibition at 100 µg/mL Value: ?
15

* * *

- Test system: Aspergillus fumigatus
- Procedure text: Antifungal activity against Aspergillus fumigatus at 100 ug/ml after 72 hrs by agar well diffusion method
- Assay type: functional
- Experimental conditions: read-out: IZ
Experimental readout: zone of inhibition at 100 µg/mL (mm)
Only the number, expressed in mm, is required.

Some compounds with known zone of inhibition at 100 µg/mL results, for comparison:
O=[N+]([O-])c1ccc(-c2cn3nc(Cc4noc5ccccc45)sc3n2)cc1 | 11
Nc1nnc(Cc2noc3ccccc23)s1 | 11
COc1ccc(-c2nc3sc(Cc4noc5ccccc45)nn3c2N=O)cc1 | 10
N#CSc1c(-c2ccccc2)nc2sc(Cc3noc4ccccc34)nn12 | 15
O=[N+]([O-])c1ccc(-c2nc3sc(Cc4noc5ccccc45)nn3c2Br)cc1 | 8
O=c1oc2ccccc2cc1-c1cn2nc(Cc3noc4ccccc34)sc2n1 | 13
O=Nc1c(-c2ccccc2)nc2sc(Cc3noc4ccccc34)nn12 | 16
O=Nc1c(-c2cc3ccccc3oc2=O)nc2sc(Cc3noc4ccccc34)nn12 | 12
c1ccc(-c2cn3nc(Cc4noc5ccccc45)sc3n2)cc1 | 19
N#CSc1c(-c2ccc(Br)cc2)nc2sc(Cc3noc4ccccc34)nn12 | 12

From here, focus on the item given below.
Item: `O=Nc1c(-c2ccc(Cl)cc2)nc2sc(Cc3noc4ccccc34)nn12` Test system: Aspergillus fumigatus Read-out: zone of inhibition at 100 µg/mL Value: ?
17

* * *

- System: Candida albicans
- Procedure text: Antifungal activity against Candida albicans at 100 ug/ml after 72 hrs by agar well diffusion method
- Assay type: functional
- Experimental conditions: read-out: IZ
Below is a list of entries, each paired with its recorded zone of inhibition at 100 µg/mL value.
Only the number, expressed in mm, is required.

May I ask what zone of inhibition at 100 µg/mL has been recorded for `Nc1nnc(Cc2noc3ccccc23)s1` ?
14

May I ask what zone of inhibition at 100 µg/mL has been recorded for `O=Nc1c(-c2ccc(Cl)cc2)nc2sc(Cc3noc4ccccc34)nn12` ?
15

May I ask what zone of inhibition at 100 µg/mL has been recorded for Clc1ccccc1C(c1ccccc1)(c1ccccc1)n1ccnc1 [CLOTRIMAZOLE] ?
22

May I ask what zone of inhibition at 100 µg/mL has been recorded for `Brc1ccc(-c2cn3nc(Cc4noc5ccccc45)sc3n2)cc1` ?
22

* * *

Below is a list of entries, each paired with its recorded zone of inhibition at 100 µg/mL value.
- Test system: Pseudomonas aeruginosa
- Procedure text: Antibacterial activity against Pseudomonas aeruginosa ATCC 10145 at 100 ug/ml after 24 hrs by agar well diffusion method
- Assay type: functional
- Experimental conditions: ATCC 10145, 24 h, read-out: IZ
Only the number, expressed in mm, is required.

Some compounds with known zone of inhibition at 100 µg/mL results, for comparison:
Clc1ccc(-c2nc3sc(Cc4noc5ccccc45)nn3c2Br)cc1 | 12
O=Nc1c(-c2ccccc2)nc2sc(Cc3noc4ccccc34)nn12 | 10
COc1ccc(-c2cn3nc(Cc4noc5ccccc45)sc3n2)cc1 | 11
c1ccc(-c2cn3nc(Cc4noc5ccccc45)sc3n2)cc1 | 9

From here, focus on the item given below.
May I ask what zone of inhibition at 100 µg/mL has been recorded for `N#CSc1c(-c2ccc(Cl)cc2)nc2sc(Cc3noc4ccccc34)nn12` ?
19

* * *

- System: Pseudomonas aeruginosa
- Procedure text: Antibacterial activity against Pseudomonas aeruginosa ATCC 10145 at 100 ug/ml after 24 hrs by agar well diffusion method
- Type: functional
- Experimental conditions: ATCC 10145, 24 h, read-out: IZ
Experimental readout: zone of inhibition at 100 µg/mL (mm)
Only the number, expressed in mm, is required.

Some molecules with known zone of inhibition at 100 µg/mL results, for comparison:
N#CSc1c(-c2ccc(Br)cc2)nc2sc(Cc3noc4ccccc34)nn12 | 18
COc1ccc(-c2nc3sc(Cc4noc5ccccc45)nn3c2N=O)cc1 | 8
Clc1ccc(-c2cn3nc(Cc4noc5ccccc45)sc3n2)cc1 | 12
O=c1oc2ccccc2cc1-c1nc2sc(Cc3noc4ccccc34)nn2c1Br | 14
N#CSc1c(-c2ccccc2)nc2sc(Cc3noc4ccccc34)nn12 | 17
O=[N+]([O-])c1ccc(-c2cn3nc(Cc4noc5ccccc45)sc3n2)cc1 | 8
Nc1nnc(Cc2noc3ccccc23)s1 | 14
O=Nc1c(-c2cc3ccccc3oc2=O)nc2sc(Cc3noc4ccccc34)nn12 | 14

May I ask what zone of inhibition at 100 µg/mL has been recorded for `COc1ccc(-c2nc3sc(Cc4noc5ccccc45)nn3c2SC#N)cc1` ?
19

May I ask what zone of inhibition at 100 µg/mL has been recorded for `N#CSc1c(-c2ccc([N+](=O)[O-])cc2)nc2sc(Cc3noc4ccccc34)nn12` ?
10

May I ask what zone of inhibition at 100 µg/mL has been recorded for `CC1(C)S[C@@H]2[C@H](NC(=O)[C@H](N)c3ccccc3)C(=O)N2[C@H]1C(=O)O` ?
17

May I ask what zone of inhibition at 100 µg/mL has been recorded for `O=c1oc2ccccc2cc1-c1cn2nc(Cc3noc4ccccc34)sc2n1` ?
10

May I ask what zone of inhibition at 100 µg/mL has been recorded for `O=Nc1c(-c2ccc(Cl)cc2)nc2sc(Cc3noc4ccccc34)nn12` ?
15
